- System: DU145
- experimentSummary: Cytotoxicity (MTT) DU145
- Type: cell-based, human
- settings: du145 cells
valueType: IC50 (mM)

moleculesmiles=C[n+]1ccc(-c2c3nc(c(-c4cc[n+](C)cc4)c4ccc([n-]4)c(-c4cc[n+](C)cc4)c4nc(c(-c5cc[n+](C)cc5)c5ccc2[n-]5)C=C4)C=C3)cc1.[Cl-].[Cl-].[Cl-].[Cl-].[Pt+2] valuetype=IC50 resultvalue=1.36

---

- measuredOn: human telomerase (Homo sapiens)
- Sequence (O14746 whole entry): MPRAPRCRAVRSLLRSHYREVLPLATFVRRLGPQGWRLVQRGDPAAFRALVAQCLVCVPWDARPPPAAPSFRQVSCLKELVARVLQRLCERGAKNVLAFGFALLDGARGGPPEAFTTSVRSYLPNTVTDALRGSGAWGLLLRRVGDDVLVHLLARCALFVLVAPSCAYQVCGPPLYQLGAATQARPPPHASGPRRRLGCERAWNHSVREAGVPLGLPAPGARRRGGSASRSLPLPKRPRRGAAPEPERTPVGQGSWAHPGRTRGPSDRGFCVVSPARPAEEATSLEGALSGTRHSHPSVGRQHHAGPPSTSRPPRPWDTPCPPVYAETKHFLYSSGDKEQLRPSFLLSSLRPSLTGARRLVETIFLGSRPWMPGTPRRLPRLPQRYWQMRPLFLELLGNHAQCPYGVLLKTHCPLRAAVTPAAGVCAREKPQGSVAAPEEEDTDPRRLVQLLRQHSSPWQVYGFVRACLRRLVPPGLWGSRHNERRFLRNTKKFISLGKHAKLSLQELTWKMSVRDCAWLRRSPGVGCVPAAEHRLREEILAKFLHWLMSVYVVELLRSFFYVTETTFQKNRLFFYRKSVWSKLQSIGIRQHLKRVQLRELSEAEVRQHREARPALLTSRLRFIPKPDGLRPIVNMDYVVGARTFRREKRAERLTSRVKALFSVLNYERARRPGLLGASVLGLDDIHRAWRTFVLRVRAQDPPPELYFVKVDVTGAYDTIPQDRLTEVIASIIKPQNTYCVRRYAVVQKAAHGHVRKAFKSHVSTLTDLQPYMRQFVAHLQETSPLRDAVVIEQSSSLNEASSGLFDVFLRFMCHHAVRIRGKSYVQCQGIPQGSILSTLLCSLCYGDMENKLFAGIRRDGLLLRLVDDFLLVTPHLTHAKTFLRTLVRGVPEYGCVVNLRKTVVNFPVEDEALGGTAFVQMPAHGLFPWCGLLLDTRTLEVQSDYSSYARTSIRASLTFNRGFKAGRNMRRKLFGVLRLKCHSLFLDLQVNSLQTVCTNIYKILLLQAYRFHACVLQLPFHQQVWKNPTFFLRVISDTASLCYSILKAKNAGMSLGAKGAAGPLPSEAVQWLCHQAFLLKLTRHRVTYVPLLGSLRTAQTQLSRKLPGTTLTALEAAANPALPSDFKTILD
- experimentSummary: Telomerase inhibition, primer extension assay in HeLa cell extract
- Format: biochemical
- settings: IC50 telomerase
valueType: IC50 (µM)

moleculesmiles=C[n+]1ccc(-c2c3nc(c(-c4cc[n+](C)cc4)c4ccc([nH]4)c(-c4cc[n+](C)cc4)c4nc(c(-c5cc[n+](C)cc5)c5ccc2[nH]5)C=C4)C=C3)cc1 measuredon="human telomerase (Homo sapiens)" valuetype=IC50 resultvalue=6.5

Reference source: patent US6087493A
